tested on: L1210 leukemia ip in BDF1 mice, survival T/C; experiment: NCI In Vivo Anticancer Drug Screen. Data for tumor model L1210 Leukemia (intraperitoneal) in B6D2F1 (BDF1) mice; settings: endpoint: mean survival time; dose: 200.0 mg/kg/injection; schedule: Q04DX003 (ip); vehicle: Klucel (hydroxypropylcellulose) (HPC); higher = longer survival
Toxic doses and inconclusive results are not listed.
Quantity: T/C

| Compound | Quantity | Result |
| --- | --- | --- |
| COC1=NS(=O)(=O)N=C(C)O1 | T/C | 102 % of control |
| CC(O)(C(=O)c1ccccc1)c1ccc(Cl)cc1 (stereo not drawn) | T/C | 98 % of control |
| ClC1=C(Cl)C2(Cl)C3(Cl)C(Cl)=C(Cl)C(Cl)(C3c3ccccc3)C2(Cl)C1c1ccccc1 (stereo not drawn) | T/C | 89 % of control |
| O=C(Nc1ccccc1C(F)(F)F)OCCN1CCNC1=S | T/C | 106 % of control |
| NC(c1ccccc1)C1C(c2ccccc2)N1C1CCCCC1 (stereo not drawn) | T/C | 86 % of control |
| CCN(c1ccc2c(c1)C(=O)c1ccccc1-2)S(=O)(=O)c1ccc(C)cc1 | T/C | 98 % of control |
| O=[N+]([O-])c1ccc2c(c1)C(Br)c1ccccc1-2 (stereo not drawn) | T/C | 92 % of control |
| COc1ccc(C2CCC(=O)CC2(O)C(=O)O)cc1 (stereo not drawn) | T/C | 102 % of control |
| Cc1ccc(S(=O)(=O)N2CCCC(Br)(Br)C(=O)c3ccccc32)cc1 | T/C | 97 % of control |
| O=S(=O)(C1CC1c1ccccc1)N(c1ccccc1)c1ccccc1 (stereo not drawn) | T/C | 93 % of control |
| O=C(Nc1ccc(F)cc1)Nc1cccc(C(=O)O)c1 | T/C | 100 % of control |
| CCOC(=O)/C(=C\c1ccccc1)P(=O)(OCC)c1ccccc1 (stereo not drawn) | T/C | 96 % of control |
| Cc1cc2oc(/C=C(\C#N)c3ccc([N+](=O)[O-])cc3)c(C)c2cc1C | T/C | 95 % of control |
